ASSAY SYSTEM: T1, human CD71 extracellular domain (human, UniProt P02786 89-760)
T1 construct: also called hCD71; human CD71-ECD
T1 sequence (P02786 89-760): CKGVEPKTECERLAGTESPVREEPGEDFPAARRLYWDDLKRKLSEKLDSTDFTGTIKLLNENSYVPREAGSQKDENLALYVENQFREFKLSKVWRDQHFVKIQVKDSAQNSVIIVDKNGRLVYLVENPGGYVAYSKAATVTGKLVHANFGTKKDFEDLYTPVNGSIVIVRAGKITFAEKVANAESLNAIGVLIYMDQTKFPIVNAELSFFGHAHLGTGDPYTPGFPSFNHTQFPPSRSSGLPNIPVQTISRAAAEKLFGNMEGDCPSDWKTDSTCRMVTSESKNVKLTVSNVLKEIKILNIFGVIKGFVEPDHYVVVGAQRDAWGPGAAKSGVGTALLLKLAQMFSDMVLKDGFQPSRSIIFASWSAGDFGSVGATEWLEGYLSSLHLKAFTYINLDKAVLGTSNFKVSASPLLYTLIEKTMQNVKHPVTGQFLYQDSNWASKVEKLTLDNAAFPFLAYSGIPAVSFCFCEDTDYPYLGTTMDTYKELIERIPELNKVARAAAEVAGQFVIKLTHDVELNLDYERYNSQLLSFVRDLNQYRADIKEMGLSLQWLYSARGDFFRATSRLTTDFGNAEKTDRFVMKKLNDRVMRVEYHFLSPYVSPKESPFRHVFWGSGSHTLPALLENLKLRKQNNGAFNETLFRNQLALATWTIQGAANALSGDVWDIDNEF
ASSAY: primary ELISA; also: test concentration or dose not given here
READOUT: RLU
Answer shape: numeric part, then the unit.

Bench note: what RLU did CD71-binding FN3 domain of SEQ ID NO: 170 (designed binder) MSLPAPKNLVVSRVTEDSARLSWTAPDAAFDSFEIGYFENLYLGEAIVLTVPGSERSYDLTGLKPGTEYWVQIGGVKGGNWSTPLSAIFTT show? 3.81e+06 RLU

Bench note: what RLU did CD71-binding FN3 domain of SEQ ID NO: 189 (designed binder) MSLPAPKNLVVSRVTEDSARLSWTAPDAAFDSFEIGYFEHTYYGEAIVLTVPGSERSYDLTGLKPGTEYWVQIGGVKGGNWSAPLSAIFTT show? 3.45e+06 RLU

Bench note: what RLU did CD71-binding FN3 domain of SEQ ID NO: 195 (designed binder) MSLPAPKNLIVSRVTEDSARLSWTAPDAAFDSFEIGYFENLYLGEAIVLTVPGSERSYDLTGLKPGTEYWVQIGGVKGSNWSAPLSAIFTT show? 2.88e+06 RLU

Bench note: what RLU did CD71-binding FN3 domain of SEQ ID NO: 160 (designed binder) MSLPAPKNLVVSRVTEDSARLSWTAPDAAFDSFEIGYFENLYLGEAIVLTVPGSERSYDLTGLKPGTEYWVQIGGVKGGNWSVPLSAIFTT show? 4.38e+06 RLU
